Value source: ChEMBL document CHEMBL4689842

System: HEK-293T
Assay: Multiplex assay against HEK293T
Assay type: toxicity, cell-based
Settings: human, 24 h, 10 µM, compound concentration 10 uM, replicate 2
The reader will find reported Population Membrane Permeable-Phenotype (%) values listed item by item below.
reported metric: Population Membrane Permeable-Phenotype (%)

sample_smiles=O=C(Nc1ccc(Cl)cc1)Nc1cccc(-c2cccc(N3CCCC3)n2)c1 unit_annotation=% experimental_value=43
sample_smiles=S=C(NCCCc1c[nH]cn1)NCCCN(Cc1ccc(Cl)c(Cl)c1)c1ccc(Br)cn1 unit_annotation=% experimental_value=0
sample_smiles=O=C(Cc1ccc(-c2ccc(OCCN3CCOCC3)cc2)cn1)NCc1ccccc1 unit_annotation=% experimental_value=7
sample_smiles=COc1ccc(-c2ccc3c(N4CCOCC4)nc(N4C[C@@H](C)O[C@@H](C)C4)nc3n2)cc1CO unit_annotation=% experimental_value=9
sample_smiles=NC(=O)c1cccc(-c2cc(Nc3ccc(OC(F)(F)F)cc3)ncn2)c1 unit_annotation=% experimental_value=1
sample_smiles=CN1CCN(C(=O)C(C)(C)c2ccc(C(=O)Nc3cn4cc(-c5cc(C(C)(C)C)cc(C(C)(C)C)c5)ccc4n3)cc2)CC1 unit_annotation=% experimental_value=7
sample_smiles=CCc1cccc(CC)c1NC(=O)c1nn(C)c2c1CCc1cnc(Nc3ccc(C(=O)NC4CCN(C)CC4)cc3OC(F)(F)F)nc1-2 unit_annotation=% experimental_value=0
sample_smiles=Cc1cc(C)c(S(=O)(=O)N(Cc2ccc(-c3cccc(S(C)(=O)=O)c3)cc2)Cc2ccc(C(F)(F)F)o2)c(C)c1 unit_annotation=% experimental_value=6
sample_smiles=CCn1c(=O)c(-c2ccc(-c3cncs3)cc2Cl)cc2cnc(Nc3ccc(N4CCN(C)CC4)cc3)nc21 unit_annotation=% experimental_value=15

###

System: U2OS
Test: Multiplex assay against U2OS
Format: toxicity, cell-based
Conditions: human, 12 h, 1 µM, compound concentration 1 uM, replicate 2
The reader will find reported Population Healthy Nuclei (%) values listed item by item below.
reported metric: Population Healthy Nuclei (%)

compound=CNC(=O)c1ccc(Nc2nc(OC3CCCC3)c3c(-c4ccc5nc(C)oc5c4)c[nH]c3n2)c(OC)c1 experimental_value=72
compound="CCOC(=O)c1c(C)[nH]c2ccc3c(c12)CN1CCc2cc(OC)ccc2C1O3 (configuration not stated)" experimental_value=76
compound="CCCS(=O)(=O)Nc1ccc(F)c(C(=O)c2c[nH]c3ncc(Cl)cc23)c1F [PLX-4720]" experimental_value=89
compound="C=C1/C(=C\\C=C2/CCC[C@]3(C)[C@@H]([C@H](C)/C=C/[C@H](C)C(C)C)CC[C@@H]23)C[C@@H](O)C[C@@H]1O [DOXERCALCIFEROL]" experimental_value=90
compound=Cl.O=C(c1ccc(Nc2nccc(-c3cc4ccccc4s3)n2)cc1)N1CCC(N2CCCC2)CC1 experimental_value=75
compound=CCOc1cc(C(=O)N2CCC(N3CCN(C)CC3)CC2)ccc1Nc1ncc2c(n1)N(C1CCCC1)c1ccccc1C(=O)N2C experimental_value=80
compound="CN(C)C(=O)C(CCN1CCC(O)(c2ccc(Cl)cc2)CC1)(c1ccccc1)c1ccccc1.Cl [LOPERAMIDE HYDROCHLORIDE]" experimental_value=88
compound=O=C1N/C(=N/c2ccccc2F)S/C1=C\c1ccc(C(=O)O)cc1 experimental_value=92
compound=COC(=N)c1nc2ccc3ncnc(Nc4ccc(OC)cc4F)c3c2s1 experimental_value=75
compound=CCc1cccc(CC)c1NC(=O)c1nn(C)c2c1CCc1cnc(Nc3ccc(C(=O)NC4CCN(C)CC4)cc3OC(F)(F)F)nc1-2 experimental_value=83
compound=S=C(NCCCc1c[nH]cn1)NCCCN(Cc1ccc(Cl)c(Cl)c1)c1ccc(Br)cn1 experimental_value=82
compound=CCc1cccc(CC)c1NC(=O)c1nn(C)c2c1CCc1cnc(Nc3ccc(N4CCN(C)CC4)cc3OC)nc1-2 experimental_value=12
compound=COc1cc(N2CCN(C)CC2)ccc1Nc1ncc2c(n1)N(C)c1ccccc1C(=O)N2C experimental_value=82
compound=O=C(Nc1ccc(Cl)cc1)Nc1cccc(-c2cccc(N3CCCC3)n2)c1 experimental_value=76
compound="CCN1CCN(c2ccc(Nc3cc(N(C)C(=O)Nc4c(Cl)c(OC)cc(OC)c4Cl)ncn3)cc2)CC1 [INFIGRATINIB]" experimental_value=51
compound=COc1ccc(S(=O)(=O)N(CCO)c2ccccc2CN(C)C/C=C/c2ccc(Cl)cc2)cc1.O=P(O)(O)O experimental_value=74
compound=CCn1c(=O)c(-c2ccc(-c3cncs3)cc2Cl)cc2cnc(Nc3ccc(N4CCN(C)CC4)cc3)nc21 experimental_value=78
compound="C=CCn1c(=O)c2cnc(Nc3ccc(N4CCN(C)CC4)cc3)nc2n1-c1cccc(C(C)(C)O)n1 [ADAVOSERTIB]" experimental_value=62
compound="Cn1nc(C(F)(F)F)cc1-c1cnc(N2CCc3cc(S(=O)(=O)Nc4c(F)cc(Cl)cc4F)cc(N4CCCC4=O)c32)nc1 [TP-020]" experimental_value=79
compound=NC(=O)c1cccc(-c2cc(Nc3ccc(OC(F)(F)F)cc3)ncn2)c1 experimental_value=81
compound="O=C(Cc1ccc(-c2ccc(OCCN3CCOCC3)cc2)cn1)NCc1ccccc1 [TIRBANIBULIN]" experimental_value=90
compound=CCN1CCN(Cc2ccc(Nc3ncc(F)c(-c4cc(F)c5nc(C)n(C(C)C)c5c4)n3)nc2)CC1.CS(=O)(=O)O experimental_value=67
compound=Cc1ccc(C(=O)Nc2cccc(C(F)(F)F)c2)cc1Nc1nc(-c2cccnc2)nc2c1cnn2C experimental_value=73
compound="CCn1cc(-c2ccnc3[nH]c(-c4cccc(CN(C)C)c4)cc23)c(-c2ccc(NC(=O)N(C)C)cc2)n1 [GSK-1070916]" experimental_value=86
compound="O=C1NC(=O)C(c2cnc3ccccn23)=C1c1cn2c3c(cc(F)cc13)CN(C(=O)N1CCCCC1)CC2 [LY-2090314]" experimental_value=87
compound=O=C(Nc1cccnn1)N1CCC(=Cc2cccc(Oc3ccc(C(F)(F)F)cn3)c2)CC1 experimental_value=78
compound=CCNc1cc(N[C@H]2CC[C@H](O)CC2)nc(Nc2ccc3c(ccn3Cc3ccccc3)c2)n1 experimental_value=75
compound=CCCS(=O)(=O)c1nc(NC2CC2)cc(-c2ccc3c(ccn3C3CC(C)(C)NC(C)(C)C3)c2)n1 experimental_value=71
compound=CNc1cc(Oc2cc(C(=O)Nc3cc(N4CCN(C)CC4)cc(C(F)(F)F)c3)ccc2C)ncn1 experimental_value=73
compound="COc1cccc2cc(-c3nc([C@H]4CC[C@H](C(=O)O)CC4)n4ncnc(N)c34)[nH]c12 [OSI-027]" experimental_value=79
compound=Cl.Oc1ccc2c3c1O[C@H]1c4[nH]c5c(c4C[C@@]4(O)[C@@H](C2)N(CC2CC2)CC[C@]314)C[C@@]1(O)[C@H]2Cc3ccc(O)c4c3[C@@]1(CCN2CC1CC1)[C@H]5O4 experimental_value=86
compound="CN1C2CCC1CC(OC(c1ccc(F)cc1)c1ccc(F)cc1)C2.Cl (configuration not stated)" experimental_value=92
